Data credit: PubChem BioAssay (NCATS)

System: CP252
Test: qHTS profiling for inhibitors of Plasmodium falciparum proliferation (AID 504749); note: nearly all actives have a fitted effect of over 60% in size
Settings: P. falciparum in erythrocytes, SYBR Green DNA, 72 h; series mostly up to 28.7 µM
Inconclusive results are not listed. Activity calls are given as the source filed them. Calls come from the whole dose curve; as a rule, active = well fitted inhibition curve with a large enough effect; inconclusive = small, poorly fitted or top-dose-only effect; inactive = flat fitted curve, though single readings scatter.
API: response.call in class 1 for active, class 0 for inactive

State the result this test recorded for C=C[C@H]1CN2CCC1C[C@H]2[C@H](O)c1ccnc2ccc(OC)cc12 (stereo partly drawn) .
class 1

State the result this test recorded for NC(C(=O)O)c1ccc(O)cc1 (stereo not drawn) .
class 0

State the result this test recorded for CC1OC(OCC2OC(Oc3c(-c4ccc(OCCO)c(OCCO)c4)oc4cc(OCCO)cc(O)c4c3=O)C(O)C(O)C2O)[C@@H](O)C(O)C1O (stereo partly drawn) .
class 0

State the result this test recorded for CC1(C)O[C@@H]2C[C@H]3[C@@H]4CCC5=CC(=O)C=C[C@]5(C)[C@H]4C(O)C[C@]3(C)[C@]2(C(=O)CO)O1 (stereo partly drawn) .
class 0

State the result this test recorded for COc1ccc(S(=O)(=O)N2c3ccc(Cl)cc3[C@](O)(c3ccccc3Cl)[C@@H]2C(=O)N2CCC[C@H]2C(N)=O)cc1OC .
class 0

State the result this test recorded for O=C1NC(=O)C2C3C=CC(C3)C12 (stereo not drawn) .
class 0

State the result this test recorded for C=C1NC(=O)c2cc(CN(C)c3ccc(C(=O)N[C@@H](CCC(=O)O)C(=O)O)s3)ccc2N1 .
class 0

State the result this test recorded for NC(=O)OC[C@@H]1[C@H](NC(=O)/C(=N/OCC(=O)O)c2csc(N)n2)C(=O)N1S(=O)(=O)O .
class 0

State the result this test recorded for C[C@]12CC[C@@H]3c4ccc(O)cc4CC[C@H]3[C@@H]1C[C@H](O)C2O (stereo partly drawn) .
class 0

State the result this test recorded for C=C1CC2C3C=C(C)C4=CC(=O)CCC4(C)C3CCC2(C)[C@@]1(OC(C)=O)C(C)=O (stereo partly drawn) .
class 0

State the result this test recorded for C/C(=C(/CCOC(=O)C(C)C)SS/C(CCOC(=O)C(C)C)=C(\C)N(C=O)Cc1cnc(C)nc1N)N(C=O)Cc1cnc(C)nc1N .
class 0

State the result this test recorded for CCCCCCCCCCCCCCCC(=O)OC[C@H](O)[C@H]1OC[C@@H](O)[C@@H]1O .
class 0

State the result this test recorded for CC(C)(C)C(=O)OCC(=O)C1CCC2C3CCC4=CC(=O)CCC4(C)C3CCC12C (stereo not drawn) .
class 0

State the result this test recorded for O=c1[nH]c(=O)n(C2C[C@H](O)[C@@H](CO)O2)cc1C(F)(F)F (stereo partly drawn) .
class 0

State the result this test recorded for Oc1cc2cc(CCN3CCN(c4nsc5ccccc45)CC3)c(Cl)cc2[nH]1 .
class 0

State the result this test recorded for C=C1N[C@]2(C(=O)COC(C)=O)[C@@H](C[C@H]3[C@@H]4CCC5=CC(=O)C=C[C@]5(C)[C@H]4[C@@H](O)C[C@@]32C)O1 .
class 0

State the result this test recorded for CC(=O)NC1[C@H](O)C[C@@](O)(C(=O)O)O[C@H]1[C@H](O)[C@H](O)CO (stereo partly drawn) .
class 0

State the result this test recorded for O=C(O)C[CH2][Ge](=[O])[O][Ge](=[O])[CH2]CC(=O)O .
class 0

---

System: CP256
Test: qHTS profiling for inhibitors of Plasmodium falciparum proliferation (AID 504749); note: nearly all actives have a fitted effect of over 60% in size
Details: P. falciparum in erythrocytes, SYBR Green DNA, 72 h; series mostly up to 28.7 µM
Results filed as inconclusive are left out. The source made the active and inactive calls. Calls come from the whole dose curve; as a rule, active = well fitted inhibition curve with a large enough effect; inconclusive = small, poorly fitted or top-dose-only effect; inactive = flat fitted curve, though single readings scatter.
API: response.call in active, inactive

State the result this test recorded for OCC1O[C@H](O[C@H]2C(O)C(O)C(O)O[C@@H]2CO)C(O)C(O)C1O (some centres undefined) .
inactive

State the result this test recorded for Cc1cc(O)c2c(c1)OC1(C)CCC3C(C)(C)CCCC34COC2C14 (centres undefined) .
inactive

State the result this test recorded for CN1[C@@H]2CC[C@@H]1CC(OC(=O)[C@H](CO)c1ccccc1)C2 (some centres undefined) .
inactive

State the result this test recorded for CC(CN1CC(=O)NC(=O)C1)N1CC(=O)NC(=O)C1 (centres undefined) .
inactive

State the result this test recorded for CCCCCCCCCCCC(=O)OCC(O)C1OCC(O)C1O (centres undefined) .
inactive

State the result this test recorded for O=C1NC(=O)C2C3C=CC(C3)C12 (centres undefined) .
inactive

State the result this test recorded for CC1CCC(O)C/C1=C\C=C1/CCCC2(C)C1CCC2C(C)/C=C/C(C)C(C)C (centres undefined) .
inactive

State the result this test recorded for CO[C@H]1/C=C/O[C@@]2(C)Oc3c(C)c(O)c4c(O)c(c5c(c4c3C2=O)NC2(CCN(CC(C)C)CC2)N=5)=NC(=O)/C(C)=C\C=C\[C@H](C)[C@H](O)[C@@H](C)[C@@H](O)[C@@H](C)[C@H](OC(C)=O)[C@@H]1C .
active

State the result this test recorded for C[C@@](Cc1ccccc1)(NC(=O)CN)c1ccccc1 .
inactive
